Values were extracted from ChEMBL document CHEMBL1201862.

Please go through the items and note down their GI50.
test system: MDA-MB-435; experiment: NCI tumour cell line growth inhibition, 48 h
Active and inactive are the calls of the source. No stated cut-off is given here; in the data, active = GI50 up to about 1.1 µM and inactive = higher.

May I ask what GI50 has been recorded for `CC(C)c1ccc2c(c1)/C(=C1/Nc3ccccc3C1=O)C(=O)N2` ?
25.8 µM (inactive)

Repeat with `CCc1cccc(CC)c1Nc1nc(-c2ccccc2-c2ccccc2)cs1`
35 µM (inactive)

Repeat with `Cc1ccc(-c2cc(-c3ccco3)c(C#N)c(=S)[nH]2)cc1`
23.9 µM (inactive)

Repeat with `COc1ccc(-c2cc(-c3cc(OC)c(OC)c(OC)c3)cc(-c3cc4ccccc4oc3=O)n2)cc1`
16.7 µM (inactive)

Repeat with NC(CCC(=O)NC(CSC(=O)N(O)c1ccc(Cl)cc1)C(=O)NCC(=O)O)C(=O)O (stereo not given)
> 0.5 µM (active)

Repeat with `CCOC(=O)Nc1nn[nH]c1Cl`
> 100 µM (inactive)

Repeat with `CCc1n[nH]c(=O)n1CCCCCCCCCCCCn1c(CC)n[nH]c1=O`
23.1 µM (inactive)

Repeat with CCN1CCC(O)(/C=C/c2cccc(C)c2)C(C(=O)/C=C/c2cccc(C)c2)C1 (stereo not given)
2.02 µM (inactive)

Repeat with `C=CCN(CC=C)Cn1c(=S)sc2ccccc21`
> 100 µM (inactive)

Repeat with CC[C@]1(Cc2ccc(OC)c(OC)c2)C=[N+]([O-])O[C@H](OC2CCCCC2c2ccccc2)[C@@H]1OC(C)=O (stereo not given in full)
50.6 µM (inactive)

Repeat with `COc1ccc(CCNC(=O)[C@H]2CCCC[C@@H]2CCO)cc1OC`
> 100 µM (inactive)

Repeat with CNC1C(O)CC(OC2C/C=C(\C)C/C(C)=C/C=C/CCC(C)CNC(=O)/C=C/C=C/C2C)OC1C (stereo not given)
0.377 µM (active)

Repeat with `COc1cc2c(OC)c(c1)CCCC1=CC(=O)C=C(CCC2)C1=O`
23.8 µM (inactive)

Repeat with OCC(CCc1ccccc1I)C1=CCC2(CC1)OCCO2 (stereo not given)
15.7 µM (inactive)

Repeat with COc1ccc(OC2OC(COC(c3ccccc3)(c3ccc(OC)cc3)c3ccc(OC)cc3)C(O)C(O)C2O)cc1 (stereo not given)
3.13 µM (inactive)

Repeat with `CC1=CC(C)(C)[C@H]2O[C@@]3(O)C[C@]4(C)[C@H]5C[C@@](C(C)C)(O[C@H]4c4ccoc4)O[C@H]4[C@]5(C3)O[C@@]1(O)[C@]24O`
> 100 µM (inactive)

Repeat with CC1OC2(CC(OCc3ccccc3)C1OCc1ccccc1)OCCO2 (stereo not given)
57 µM (inactive)

Repeat with `Brc1ccc(-c2nc(-c3ccc(Br)cc3)n(-c3ccccc3)n2)cc1`
46.7 µM (inactive)

Repeat with `CCOC(=O)Cc1nc2sc(S(N)(=O)=O)nn2c1Br`
38.7 µM (inactive)

Repeat with `COc1cc2c(cc1C)NC(=O)/C2=C/c1c(Cl)[nH]c2ccccc12`
1.62 µM (inactive)
